biological target: Methionine aminopeptidase 2 (Homo sapiens)
Sequence (P50579 whole entry): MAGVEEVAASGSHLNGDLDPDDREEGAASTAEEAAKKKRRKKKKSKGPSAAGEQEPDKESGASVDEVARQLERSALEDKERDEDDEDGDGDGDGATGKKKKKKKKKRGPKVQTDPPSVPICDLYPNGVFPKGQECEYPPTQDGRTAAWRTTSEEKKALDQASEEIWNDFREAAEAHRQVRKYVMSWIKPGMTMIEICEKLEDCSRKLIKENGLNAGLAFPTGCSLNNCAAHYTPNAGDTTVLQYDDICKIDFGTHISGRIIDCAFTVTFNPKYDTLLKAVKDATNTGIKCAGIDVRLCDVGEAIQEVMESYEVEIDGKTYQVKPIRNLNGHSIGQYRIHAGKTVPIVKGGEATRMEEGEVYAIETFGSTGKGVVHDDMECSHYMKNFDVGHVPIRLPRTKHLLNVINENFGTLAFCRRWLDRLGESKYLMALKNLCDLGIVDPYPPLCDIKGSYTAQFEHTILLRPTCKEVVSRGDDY
Examples of compounds with documented IC50 follow.
endpoint label: IC50

Cc1ccc2cccc(O)c2n1 [8-HYDROXY QUINALDINE]: > 15 µM
O=S(=O)(O)c1ccc(O)c2ncccc12: > 15 µM

* * *

test system: Burkholderia thailandensis; assay: Antibacterial activity against Burkholderia thailandensis E264 assessed as bacterial growth inhibition at 1 mM after 24 hrs by two-fold dilution method relative to DMSO-treated control; assay type: functional; settings: E264, 24 h, read-out: GI
Examples of compounds with documented inhibition of growth at 1000 µM follow.
endpoint label: inhibition of growth at 1000 µM

CN1CCN(Cc2cc(Cl)c3cccnc3c2O)CC1: > 50%
Oc1c(CN2CCCCC2)cc(Cl)c2cccnc12: > 50%
O=S(=O)(O)c1ccc(O)c2ncccc12: 9%
Nc1nnc(SCc2ccc(Cl)cc2Cl)[nH]1: ≤ 26%
Oc1ccc(Cl)c2cccnc12: > 50%
CC(C)(C)c1ccc(CSc2nnc(N)[nH]2)cc1: ≤ 26%
Nc1nnc(SCc2ccc(F)c(F)c2)[nH]1: ≤ 26%

* * *

test: Inhibition of Burkholderia pseudomallei recombinant methionine aminopeptidase 1 using H-Met-Gly-Pro-7-amino-4-methylcoumarin hydrochloride as substrate measured for 10 mins by fluorescence assay in presence of human recombinant DPP4
endpoint label: IC50

O=[N+]([O-])c1cc(CN2CCSCC2)c(O)c2ncccc12: > 250 µM
Nc1nnc(SCc2ccc(F)c(F)c2)[nH]1: > 250 µM
CC(C)(C)c1ccc(CSc2nnc(N)[nH]2)cc1: > 250 µM
CC(C)c1ccc(CSc2nnc(N)[nH]2)cc1: > 250 µM
